Assay: AUC (0 to t) in Sprague-Dawley rat at 5 mg/kg, iv measured upto 24 hrs by LC-MS/MS analysis
Type: ADME, organism-based
Set-up: dose 5 mg/kg, time < 24 hrs, route iv
Details: in vivo
endpoint: AUC(0-t) at 24 h
Please don't drop the unit; write it after the number.

Data request: Which measured AUC(0-t) at 24 h value corresponds to C#C[C@]1(CO)O[C@@H](n2cnc3c(N)nc(F)nc32)[C@@H](F)[C@@H]1O ?
Data returned: 5290 ng·h/mL

* * *

Assay: Bioavailability in Sprague-Dawley rat at 2.5 mg/kg, IG measured upto 24 hrs by LC-MS/MS analysis
Format: ADME, organism-based
Details: in vivo, po
endpoint: bioavailability (%)
Answer format: numeric, % implied, no suffix.

Data request: Which measured bioavailability value corresponds to C#C[C@]1(CO)O[C@@H](n2cnc3c(N)nc(F)nc32)[C@@H](F)[C@@H]1O ?
Data returned: 64.2

* * *

Experiment: AUC (0 to t) in Sprague-Dawley rat at 5 mg/kg, IG measured upto 24 hrs by LC-MS/MS analysis
Type: ADME, organism-based
Parameters: time < 24 hrs, dose 5 mg/kg, route ig
Details: in vivo, po
endpoint: AUC(0-t) at 24 h (ng·h/mL)
Answer format: numeric, ng·h/mL implied, no suffix.

Data request: Which measured AUC(0-t) at 24 h value corresponds to C#C[C@]1(CO)O[C@@H](n2cnc3c(N)nc(F)nc32)[C@@H](F)[C@@H]1O ?
Data returned: 3630

* * *

Assay: Toxicity in po dosed Sprague-Dawley rat assessed as NOAEL administered once daily for 4 weeks and measured after 24 hrs post last dose
Format: organism-based
Conditions: in vivo
endpoint: NOAEL at 696 h

Data request: Which measured NOAEL at 696 h value corresponds to C#C[C@]1(CO)O[C@@H](n2cnc3c(N)nc(F)nc32)[C@@H](F)[C@@H]1O ?
Data returned: 30 mg/kg

* * *

Test: Bioavailability in Sprague-Dawley rat at 10 mg/kg, IG measured upto 24 hrs by LC-MS/MS analysis
Type: ADME, organism-based
Settings: in vivo, po
endpoint: bioavailability (%)
Answer format: numeric, % implied, no suffix.

Data request: Which measured bioavailability value corresponds to C#C[C@]1(CO)O[C@@H](n2cnc3c(N)nc(F)nc32)[C@@H](F)[C@@H]1O ?
Data returned: 76.3

* * *

Experiment: Cmax in Sprague-Dawley rat at 2.5 mg/kg, IG measured upto 24 hrs by LC-MS/MS analysis
Format: ADME, organism-based
Set-up: time < 24 hrs, dose 2.5 mg/kg, route ig
Details: in vivo, po
endpoint: Cmax (ng/mL)
Answer format: numeric, ng/mL implied, no suffix.

Data request: Which measured Cmax value corresponds to C#C[C@]1(CO)O[C@@H](n2cnc3c(N)nc(F)nc32)[C@@H](F)[C@@H]1O ?
Data returned: 630

* * *

Assay: Bioavailability in Sprague-Dawley rat at 5 mg/kg, IG measured upto 24 hrs by LC-MS/MS analysis
Type: ADME, organism-based
Conditions: in vivo, po
endpoint: bioavailability (%)
Answer format: numeric, % implied, no suffix.

Data request: Which measured bioavailability value corresponds to C#C[C@]1(CO)O[C@@H](n2cnc3c(N)nc(F)nc32)[C@@H](F)[C@@H]1O ?
Data returned: 67.5

* * *

Listing of recorded pEC50 by entry.
Tested on: Human immunodeficiency virus 1
Test: Antiviral activity against HIV1 TC-1 infected in human PBMC assessed as inhibition of viral replication by measuring reduction in p24 antigen level incubated for 3 to 7 days by ELISA analysis
Format: functional, organism-based
Details: Human immunodeficiency virus 1, TC-1, PBMC
// pEC50 here means minus log10 of the molar concentration (mol/L)

Data request: Item: C#C[C@]1(CO)O[C@@H](n2cnc3c(N)nc(F)nc32)[C@@H](F)[C@@H]1O Test system: Human immunodeficiency virus 1 Read-out: pEC50 Value: ?
Data returned: 8.20

--- query ---
Data request: Item: Nc1ccn([C@@H]2CS[C@H](CO)O2)c(=O)n1 [LAMIVUDINE] Test system: Human immunodeficiency virus 1 Read-out: pEC50 Value: ?
Data returned: 6.68
